assay: NCI Yeast Anticancer Drug Screen. Data for the bub3 strain (AID 167); settings: S. cerevisiae bub3 mutant strain, at 11.0 µM
About 79,000 compounds went through this panel and 15% of them were active in at least one assay; those are over-represented in the sample as a whole. Activity calls are given as the source filed them. Rule as the data show it: active = growth inhibition above about 70%; inactive = the rest.
Your reply should match one of these outcome classes. yes (active), no (inactive)

COc1cc(C(=O)C=O)cc(OC)c1OC ... no
c1cc(-c2sc(-c3ccncc3)c(-c3ccncc3)c2-c2ccncc2)ccn1 ... no
O=C1SS(=O)c2ccccc21 (centres undefined) ... no
CCN(CC)CC(=O)c1ccc2cc(Cl)c3ccccc3c2c1 ... yes

Would you mind telling me which call this test gave CN(C)CC1=Nc2cccc3cccc(c23)N1 ? no

What was the test verdict on CCCCS(=O)(=O)Nc1ccc(Nc2c3ccccc3nc3ccccc23)c(OC)c1 ? no
